These measurements were taken from ChEMBL document CHEMBL1132437.

System: Staphylococcus aureus
assayExplanation: In vitro antibacterial activity against gram-positive Staphylococcus aureus 1775
Type: functional
conditionLabel: Staphylococcus aureus; read-out: MIC
Known log10 MIC of a selection of compounds
measuredParameter: log10 MIC (log10 of the value in µg/mL)

# compound, log10 MIC
data = [
    ("Cc1c(N2C[C@H](C3CC3)[C@@H](N)C2)c(F)cn2c(=O)c(C(=O)O)cc(C3CC3)c12", -0.11),
    ("Cc1c(N2CC[C@@H](N)C2)c(F)cn2c(=O)c(C(=O)O)cc(C3CC3)c12", 0.19),
    ("Cc1c(N2CCCC(NC3CC3)C2)c(F)cn2c(=O)c(C(=O)O)cc(C3CC3)c12 (stereo not given)", 0.19),
    ("Cc1c(N2CCCN2C)c(F)cn2c(=O)c(C(=O)O)cc(C3CC3)c12", 0.49),
    ("Cc1c(N2CC[C@@H](NCCF)C2)c(F)cn2c(=O)c(C(=O)O)cc(C3CC3)c12", -0.41),
    ("Cc1c(N2C[C@@H]3OCCN[C@@H]3C2)c(F)cn2c(=O)c(C(=O)O)cc(C3CC3)c12", -0.11),
    ("Cc1c(N2C[C@@H](N)[C@@H](C3CC3)C2)c(F)cn2c(=O)c(C(=O)O)cc(C3CC3)c12 (stereo in doubt; 3s)", -0.41),
    ("Cc1c(N2C[C@H](C)[C@@H](N)C2)c(F)cn2c(=O)c(C(=O)O)cc(C3CC3)c12", -0.11),
    ("Cc1c(N2CC[C@H](NCC(F)(F)F)C2)c(F)cn2c(=O)c(C(=O)O)cc(C3CC3)c12", -0.11),
    ("Cc1c(N2C[C@@H](N)[C@H](C3CC3)C2)c(F)cn2c(=O)c(C(=O)O)cc(C3CC3)c12 (stereo in doubt; 3t)", -0.11),
    ("Cc1c(N2C[C@@H]3COC[C@]3(CN)C2)c(F)cn2c(=O)c(C(=O)O)cc(C3CC3)c12", 0.49),
    ("Cc1c(N2C[C@@H]3OCC[C@]3(CN)C2)c(F)cn2c(=O)c(C(=O)O)cc(C3CC3)c12", -0.11),
    ("Cc1c(N2CCCCC2)c(F)cn2c(=O)c(C(=O)O)cc(C3CC3)c12", -0.11),
    ("CN[C@@H]1CN(c2c(F)cn3c(=O)c(C(=O)O)cc(C4CC4)c3c2C)C[C@@H]1C", -0.41),
    ("Cc1c(N2CCC[C@@H](NC3CC3)C2)c(F)cn2c(=O)c(C(=O)O)cc(C3CC3)c12", 0.49),
    ("Cc1c(N2CCC[C@H](NC3CC3)C2)c(F)cn2c(=O)c(C(=O)O)cc(C3CC3)c12", -0.41),
    ("COCCN[C@H]1CCN(c2c(F)cn3c(=O)c(C(=O)O)cc(C4CC4)c3c2C)C1", 0.19),
    ("Cc1c(N2CCC3(CCCC3N)C2)c(F)cn2c(=O)c(C(=O)O)cc(C3CC3)c12 (stereo not given)", -0.11),
    ("Cc1c(N2C[C@@H]3CCCN[C@@H]3C2)c(F)cn2c(=O)c(C(=O)O)cc(C3CC3)c12", -0.11),
    ("Cc1c(N2C[C@H]3CCN[C@H]3C2)c(F)cn2c(=O)c(C(=O)O)cc(C3CC3)c12", 0.79),
    ("Cc1c(N2C[C@@H]3CCCC[C@]3(N)C2)c(F)cn2c(=O)c(C(=O)O)cc(C3CC3)c12", 0.19),
    ("CCCN[C@H]1CCN(c2c(F)cn3c(=O)c(C(=O)O)cc(C4CC4)c3c2C)C1", 0.19),
    ("Cc1c(N2CC[C@@H](C)[C@@H](N)C2)c(F)cn2c(=O)c(C(=O)O)cc(C3CC3)c12", 0.49),
    ("CN[C@H]1CN(c2c(F)cn3c(=O)c(C(=O)O)cc(C4CC4)c3c2C)C[C@@H]1C", -0.11),
    ("Cc1c(N2CCCC(N)C2)c(F)cn2c(=O)c(C(=O)O)cc(C3CC3)c12 (stereo not given)", -0.41),
    ("Cc1c(N2CC[C@H](N)C2)c(F)cn2c(=O)c(C(=O)O)cc(C3CC3)c12 (stereo in doubt; 3i) [ABT-719]", -0.11),
    ("Cc1c(N2C[C@@H](C)[C@H](N)C2)c(F)cn2c(=O)c(C(=O)O)cc(C3CC3)c12", -0.11),
    ("Cc1c(N2CCC(N(C)C3CC3)C2)c(F)cn2c(=O)c(C(=O)O)cc(C3CC3)c12 (stereo not given)", 0.19),
    ("Cc1c(N2CC[C@@H]3CNC[C@@H]32)c(F)cn2c(=O)c(C(=O)O)cc(C3CC3)c12", 0.79),
    ("Cc1c(N2C[C@H]3CCNC[C@@H]3C2)c(F)cn2c(=O)c(C(=O)O)cc(C3CC3)c12", 0.79),
    ("Cc1c(N2CC[C@H](C)[C@H](N)C2)c(F)cn2c(=O)c(C(=O)O)cc(C3CC3)c12 (stereo in doubt; 3ss)", 0.19),
    ("Cc1c(N2CC[C@@H]3CCNC[C@@H]32)c(F)cn2c(=O)c(C(=O)O)cc(C3CC3)c12", 0.79),
    ("Cc1c(N2C[C@H](N)[C@H](C3CC3)C2)c(F)cn2c(=O)c(C(=O)O)cc(C3CC3)c12", -0.11),
]
